Tested on: HCV GT1b(Con1) replicon
Experiment: HCV replicon luciferase reporter assay, genotype 1b
Assay type: cell-based, HCV genotype 1b
Stated Conditions: Hepatitis C virus, 72 h, HUH-7 cells, 3 days incubation, read-out: LE_1b (EC50, range)
Measured Attribute: EC50

C[C@@H]1CC/C=C\[C@@H]2C[C@@]2(C(=O)NS(=O)(=O)C2(C)CC2)NC(=O)[C@@H]2C[C@@H](OC(=O)Nc3ccc(F)cc3)CN2C(=O)[C@@H](NC(=O)OC(C)(C)C(F)(F)F)[C@H](C)C1
5.01 to 35 nM
Cc1cc(C)c(NC(=O)O[C@@H]2C[C@H]3C(=O)N[C@]4(C(=O)NS(=O)(=O)C5(C)CC5)C[C@H]4/C=C\CC[C@@H](C)C[C@@H](C)[C@H](NC(=O)OC(C)(C)C(F)(F)F)C(=O)N3C2)c(Cl)c1
5.01 to 35 nM
CC[C@@H]1C[C@H](C)CC/C=C\[C@@H]2C[C@@]2(C(=O)NS(=O)(=O)C2(C)CC2)NC(=O)[C@@H]2C[C@@H](OC(=O)N3Cc4cccc(F)c4C3)CN2C(=O)[C@H]1NC(=O)OC(C)(C)C
1.01 to 5 nM

Exercise: Any idea what its EC50 is? The compound is Cc1cc(C)c(NC(=O)O[C@@H]2C[C@H]3C(=O)N[C@]4(C(=O)NS(=O)(=O)C5(C)CC5)C[C@H]4/C=C\CC[C@@H](C)C[C@@H](C)[C@H](NC(=O)OC(C)(C)C)C(=O)N3C2)c(Cl)c1
Solution: 5.01 to 35 nM

Exercise: Recorded EC50 for C[C@@H]1CC/C=C\[C@@H]2C[C@@]2(C(=O)NS(=O)(=O)C2(C)CC2)NC(=O)[C@@H]2C[C@@H](OC(=O)c3ccc4c(c3)OCCO4)CN2C(=O)[C@@H](NC(=O)OC(C)(C)C)[C@H](C)C1 , please?
Solution: 1.01 to 5 nM
